Source listed as patent US20250376535A1.

Target system: T1, EGFR Fc (human, UniProt P00533 25-645)
T1 construct: also called EGFR-hFc; recombinant human EGFR-Fc
Assay explanation: ELISA, EGFR Fc coated, VHH at 0.016 nM
Measured parameter: OD450

a: pgEG-SX9 (VHH, not shown: small tags and cut ends) VHH: QVQLVESGGGLVQAGGSLRLSCAASVSGSALSNMAWYRQRPGNQRELVAHITFDNFTNYADSVKGRFTISRDNVKNTVDLQMSSLKPEDTAVYYCNARHFFGDNYWGKGTLVTVSS
b: pgEG-SX55 (VHH, not shown: small tags and cut ends) VHH: QVQLVESGGGLVQPGGSLRLSCAGTGLIFTTYVMGWYRQAPGKQRELVAIVTNGGGTHYADFVKGRFTISRDNAKNTVSLQMNLLKPEDTAVYYCNARHLVRPGTNDYWGQGTLVTVSS
In: Hi there! Just curious which has the higher OD450 between a and b . Mark your answer with the label of the selected entry.
Out: a
(a: 0.903, b: 0.193)
